src = patent US12018066

# Measurement Target: SARS-CoV-2 spike protein receptor binding domain (RBD2) (SARS-CoV-2, UniProt P0DTC2 319-537)
# Assay Summary: flow cytometry, yeast-expressed scFv
Measure Name: pKd
// field semantics: pKd = negative decimal log of concentration (mol/L)

Task item: What pKd value was documented for this binder, E07 scFv (scFv) scFv: SYVLTQPPSVSVAPGQTARITCGGNNIGSKSVHWYQQKPGQAPVLVVYDDSDRPSGIPERFSGSNSGNTATLIISRVEAGDEADYYCQVWDSSSVHYVFGTGTKLTVLSGGSTITSYNVYYTKLSSSGTQVQLVQSGAEVKKPGSSVRVSCKVSGYTFTGYYMHWVRQAPGQGLEWMGIINPSGGSTSYAQKFQGRVTMTRDTSTSTVYMELSSLRSEDTAVYYCARVRVGASDAFDIWGQGTMVTVSS ?
Reply: 6.36
